tested on: MATE1 (Homo sapiens)
Sequence (Q96FL8 whole entry): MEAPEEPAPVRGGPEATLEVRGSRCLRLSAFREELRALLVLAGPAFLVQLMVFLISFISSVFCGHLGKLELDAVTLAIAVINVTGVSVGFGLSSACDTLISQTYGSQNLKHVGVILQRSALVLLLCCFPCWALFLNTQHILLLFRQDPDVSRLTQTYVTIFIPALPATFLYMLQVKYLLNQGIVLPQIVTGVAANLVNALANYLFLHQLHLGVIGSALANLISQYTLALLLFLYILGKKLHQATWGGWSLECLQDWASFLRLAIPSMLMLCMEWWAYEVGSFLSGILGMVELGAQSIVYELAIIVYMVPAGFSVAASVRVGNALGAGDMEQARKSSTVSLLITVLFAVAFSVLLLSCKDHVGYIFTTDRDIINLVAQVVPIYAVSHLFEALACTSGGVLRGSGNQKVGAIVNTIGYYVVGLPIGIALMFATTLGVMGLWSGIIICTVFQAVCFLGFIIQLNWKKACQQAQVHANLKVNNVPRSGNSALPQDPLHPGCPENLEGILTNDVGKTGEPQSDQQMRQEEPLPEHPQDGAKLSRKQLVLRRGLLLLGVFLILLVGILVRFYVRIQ
protocol text: in vitro
experimental conditions: human, pH 8
Procedure: The pre-incubation solutions were removed, and incubation solutions containing the inhibitors and probe substrates (or transport buffer containing an equal volume of vehicle control and probe substrates) were added and incubated at 37°C for 2 min (5 min for OATP1B3). […] The concentrations of probe substrates were determined by LC-MS/MS, and a BCA Kit (Solarbio ®Life Sciences, Beijing, China) was used to determine the protein content in the cell lysate. […]
property name: inhibition at 2 min, 30 µM
Lab note: write values as number then unit, every time.

response.value for C[C@H](Nc1ncnc(N)c1C#N)c1cc2ncc(Cl)n2nc1-c1ccccc1 [Amdizalisib] (field: inhibition at 2 min, 30 µM) = 52.2%
